System: IL-12-induced IFN-γ secretion in NK92 cells
Assay: Inhibition of IL-12-induced IFN-γ Secretion in NK92 Cells (ELISA)
Format: cell-based, human
Conditions: Homo sapiens, 24 hours incubation, 8 concentration points, read-out: IC50 (NK92_IL12/IFNγ)
PARAMETER: IC50 (nM)

{"COMPOUND": "Cc1cnc(Nc2cnn(C)c2)nc1N1C[C@]2(C)CN(C(=O)[C@@H]3CC3(F)F)C[C@]2(C)C1 [Compound 56]", "READOUT_UNIT": "nM", "IC50": 505}
{"COMPOUND": "CCNC(=O)c1ccc(Nc2ncc(F)c(N3C[C@]4(C)CN(C(=O)C5CC5(F)F)C[C@]4(C)C3)n2)cc1 (stereo partly shown) [Compound 10]", "READOUT_UNIT": "nM", "IC50": 3800}

a: CN1CCN(C(=O)c2ccc(Nc3ncc(Cl)c(N4C[C@]5(C)CN(C(=O)C6CC6)C[C@]5(C)C4)n3)cn2)CC1 [Compound 59]
b: C[C@H](O)Cn1cc(Nc2ncc(Cl)c(N3C[C@]4(C)CN(C(=O)C5CC5)C[C@]4(C)C3)n2)cn1 [Compound 18]
Field: lower recorded IC50 (choose a or b ) Please indicate the selected item by its label.
b

====

Test system: IL-12-induced IFN-γ secretion in NK92 cells
Experiment: Inhibition of IL-12-induced IFN-γ Secretion in NK92 Cells (ELISA)
Type: cell-based, human
Settings: Homo sapiens, 24 hours incubation, 8 concentration points, read-out: IC50 (NK92_IL12/IFNγ)
Method: Inhibition of IL-12-induced IFN-γ Secretion in NK92 Cells The effect of the compounds of the present invention on IFN-γ secretion induced by IL-12 in NK92 cells was evaluated by an enzyme-linked immunosorbent assay (ELISA). […] The IC50 value of the test compound was calculated front 8 concentration points using the XLfit software (ID Business Solutions Ltd., UK) by the following formula: Y=Bottom+(Top−Bottom)/(1+10^((log IC50−X)×slope factor)) […]
PARAMETER: IC50 (nM)

{"COMPOUND": "Cn1cc(Nc2ncc(Cl)c(N3C[C@]4(C)CN(Cc5cc[nH]n5)C[C@]4(C)C3)n2)cn1", "IC50 [nM]": 3970}
{"COMPOUND": "Cn1cc(Nc2ncc(Cl)c(N3C[C@]4(C)CN(C(=O)[C@@H]5CC5(F)F)C[C@]4(C)C3)n2)cn1", "IC50 [nM]": 305}
{"COMPOUND": "C[C@@]12CN(C(=O)C3CC3)C[C@]1(C)CN(c1nc(Nc3cn[nH]c3)ncc1Cl)C2", "IC50 [nM]": 551}
{"COMPOUND": "Cn1cc(Nc2ncc(Cl)c(N3C[C@H]4CN(C(=O)[C@@H]5CC5(F)F)C[C@H]4C3)n2)cn1", "IC50 [nM]": 847}
{"COMPOUND": "Cn1cc(Nc2ncc(Cl)c(N3C[C@]4(C)CN(c5ccccn5)C[C@]4(C)C3)n2)cn1", "IC50 [nM]": 934}

P: C[C@]12CN(C(=O)CC#N)C[C@H]1CN(c1nc(Nc3cn[nH]c3)ncc1Cl)C2
Q: Cn1cc(Nc2ncc(Cl)c(N3C[C@@H]4CN(C(=O)CC#N)C[C@]4(C)C3)n2)cn1 (racemic) [Compound 63]
Determine, for P and Q , which has the greater value of IC50. Please indicate the selected item by its label.
P

A: Cn1cc(Nc2ncc(Cl)c(N3C[C@@]4(C)CN(CC#N)C(=O)[C@@]4(C)C3)n2)cn1 (racemic)
B: CN1CCC(n2cc(Nc3ncc(Cl)c(N4C[C@]5(C)CN(C(=O)C6CC6)C[C@]5(C)C4)n3)cn2)CC1
C: Cc1cnc(Nc2cnn(C)c2)nc1N1C[C@@H]2CN(C(=O)CC#N)C[C@]2(C)C1 (racemic)
D: C[C@@]12CN(C(=O)C3CC3)C[C@]1(C)CN(c1nc(Nc3cnn(CC#N)c3)ncc1Cl)C2
Output the entries ranked by IC50 from maximum down to minimum. Record the ranking as a list of labels in the requested order.
C, B, A, D
(C: 3540 nM, B: 1010 nM, A: 398 nM, D: 215 nM)

a: Cn1cc(Nc2ncc(Cl)c(N3C[C@]4(C)CN(c5ccncn5)C[C@]4(C)C3)n2)cn1
b: Cn1cc(Nc2ncc(Cl)c(N3C[C@]4(C)CN(C(=O)CC#N)C[C@]4(C)C3)n2)cn1
c: Cn1cc(Nc2ncc(Cl)c(N3C[C@@H]4CN(C(=O)CC#N)C[C@]4(C)C3)n2)cn1 [Compound 88]
d: C[C@@]12CN(C(=O)C3CC3)C[C@]1(C)CN(c1nc(Nc3cnn(C(F)F)c3)ncc1Cl)C2
e: Cn1cc(Nc2ncc(Cl)c(N3C[C@H]4CN(C(=O)CC#N)C[C@]4(C)C3)n2)cn1 (racemic)
Output the entries ranked by IC50 from maximum down to minimum. Record the ranking as a list of labels in the requested order.
d, e, a, b, c
(d: 1210 nM, e: 763 nM, a: 399 nM, b: 233 nM, c: 67 nM)

A: Cn1cc(Nc2ncc(Cl)c(N3C[C@]4(C)CN(C(=O)CC(F)F)C[C@]4(C)C3)n2)cn1
B: C[C@@]12CN(C(=O)C3CC3)C[C@]1(C)CN(c1nc(Nc3ccc(C(=O)N4CCOCC4)nc3)ncc1Cl)C2
C: Cn1cc(Nc2ncc(F)c(N3C[C@]4(C)CN(C(=O)C5CC5)C[C@]4(C)C3)n2)cn1
Could you please order the items by IC50, going from the lowest number to the highest? Record the ranking as a list of labels in the requested order.
A, B, C
